# Tested on: SF-268
# Protocol details: NCI tumour cell line growth inhibition, 48 h
Activity calls are given as the source filed them. Cut-off read from the data, not from the text of the source: active = GI50 up to about 1.1 µM and inactive = higher.
Outcomes: active, inactive

> print(dat)
                                    molecule  class.label
 1  COc1ccc(/N=N/C(=O)NC(CC(C)C)C(=O)NC(C)C(=O)O)cc1 (stereo not given)     inactive
 2  CCOC(=O)c1c(SCCN2CCCCC2)n(-c2ccccc2)c(=S)n(-c2ccccc2)c1=O     inactive
 3  COc1cc(/C=C2\[C@H]3c4c(c(OC)c(C)c(OC)c4OC)CC(C(=O)N2Cc2ccccc2)N3C)c(OC)c(C)c1OC     inactive
 4  Cc1nc(C(N)=S)sc1C(=O)CC(=O)C(=O)Nc1c(C(C)C)cccc1C(C)C     inactive
 5  O=C(CC1(O)C(=O)Nc2ccccc21)c1ccc(O)cc1O (stereo not given)     inactive
 6  COC(=O)C(/C(=N/NC(N)=O)C(=O)Nc1ccc(C)cc1)c1nc2ccc([N+](=O)[O-])cc2nc1O (stereo not given)     inactive
 7  CN(C(=O)c1ccccc1)c1ccc2c(c1)C(=O)c1ccccc1C2=O     inactive
 8  COc1cc(OC)c2c(O)c(S(=O)(=O)c3ccc(C)cc3)c(=O)oc2c1     inactive
 9  C=Cc1c(C)c2cc3nc(c4c5[nH]c(cc6nc(cc1[nH]2)C(C)=C6CC)c(C)c5C(=O)C4C(=O)OC)C(CCC(=O)OC)C3C (stereo not given)     inactive
10  C=C1C(=O)OC2/C=C(\C)CC/C=C(\C)CC(OC(=O)/C(=C/CO)CO)[C@@H]12 (stereo not given in full)     inactive
11  O=C(/C=C/c1ccc2c(c1)OCO2)CC(=O)C(=O)c1c[nH]c2ccccc12     inactive
12  C1CCC(N=C2N(C3CCCCC3)C(=NC3CCCCC3)N2C2CCCCC2)CC1     inactive
13  CC(C)(C)C(=O)ON1N=NC2C3CC(OCc4ccccc4)(OCc4ccccc4)C(O3)C21 (stereo not given)     inactive
14                Cc1cccc(/C=C2\CCCCCC2=O)c1     inactive
15  COc1cc(C2c3cc4c(cc3OC(NNC(N)=O)C2C)OCO4)cc(OC)c1O (stereo not given)     inactive
16             O=C(O)c1cccc(S(=O)(=O)NCCO)c1     inactive
17                  CCCn1cnc2c(/N=N/O)ncnc21     inactive
18  COC(=O)[C@@H]1C=CCN1S(=O)(=O)c1ccc(C)cc1     inactive
19          CCOC(=O)c1cn2c(n1)sc1cc(OC)ccc12     inactive
20  CC(O)CC(=O)CO[C@H]1[C@H](O)[C@@H](O)[C@@H](O)[C@@H]2NC(=O)c3c(cc4c(c3O)OCO4)[C@H]21 (stereo not given in full)       active

###

# System: OVCAR-4
# Protocol details: NCI tumour cell line growth inhibition, 48 h
Active and inactive are the calls of the source. Rule as the data show it: active = GI50 up to about 1.1 µM and inactive = higher.
Labels: active, inactive

> print(dat)
                                    compound  test.target  class.label
 1  COC1OC2COC1(OCc1ccccc1)C1OC(C)(C)OC21 (stereo not given)      OVCAR-4     inactive
 2  CCCCCCCCCC(=O)OCC1OC(n2cc(F)c(=O)[nH]c2=O)C(N)C(OC(=O)CCCCCCCCC)C1O (stereo not given)      OVCAR-4     inactive
 3  NS(=O)(=O)c1nnc(NS(=O)(=O)c2ccc(Cl)cc2)s1      OVCAR-4     inactive
 4  O=c1cc(-c2ccccc2)oc2cc(OCCCCCCCCCCOc3ccc4c(=O)cc(-c5ccccc5)oc4c3)ccc12      OVCAR-4     inactive
 5  COc1cc(C2c3cc4c(cc3OC(NNC(N)=O)C2C)OCO4)cc(OC)c1O (stereo not given)      OVCAR-4     inactive
 6  COc1ccc2c(c1)c1c3c(ccc4ncn2c43)N(CCN(C)C)CCN=1      OVCAR-4       active
 7  CC(C)(C)C(=O)ON1N=NC2C3CC(OCc4ccccc4)(OCc4ccccc4)C(O3)C21 (stereo not given)      OVCAR-4     inactive
 8            Cc1cc2c(nn1)CCc1c-2no[n+]1[O-]      OVCAR-4     inactive
 9  N#CC(C(=O)CCC(=O)Nc1cccc(C(F)(F)F)c1)c1ccccc1 (stereo not given)      OVCAR-4     inactive
10  CC12CC3OC(=O)C1COC14OC5(C2C1=O)C(O)(CCC1C4CC2OC24CC=CC(=O)C14C)C(=O)OC35C (stereo not given)      OVCAR-4     inactive

Value source: ChEMBL document CHEMBL1201862
